- Measurement Description: yeast display, Sf9 membrane polyspecificity reagent, FACS + sequencing; frameworks hold sequencing errors
Endpoint: polyreactivity (PSR sort gate)

QVQLVDSVGGLVQAGGSLSLSCAASGLIFASNAMGWYRQAPGKERELLATIRRGTSTNYADSVKGRFTISRDNAKNTVYLEMNSLKPEDTAVYYCAADGYTYKFDYWGQGTQVTVSS	low polyreactivity
QVQLVESGGGLVQARGSLRLSCAASGIIFLVNDMGWYRQAPGKVRELVAAITYSGDGTFYADSVKGRFTISRDNAKNTVYLQMNSLKPEDTAVYYCAADLPESPESYYHTDDYWGQGTQGTVSS	low polyreactivity

====

- Measurement Description: yeast display, Sf9 membrane polyspecificity reagent, FACS + sequencing; frameworks hold sequencing errors
Endpoint: polyreactivity (PSR sort gate)

The cases that follow already have their polyreactivity (PSR sort gate) on record.
QVQLVESGGGLVQAGGRLRLSCAASGLIIKLYAMGWYRQAPGKERELVAAITDRGGSTYYADSVKGRFTISRDNAKNTVYLQMNSLKPEDTAVYYCAAPYAGWRDGGDYWGQGTQVTVSS	low polyreactivity
QVQLVESGGGLVQAGGSLRLICAASGSIFGHNAMGWYRQAPGKERELVAAINASDGNTYYADSVKGRFTISRDNAKNTVYLQMNSLKPEDTAVYYCAAEGYFDHYYYYRVYSWGQGTQVTVSS	low polyreactivity
QVQLVESGGGLVQAGGSLRLSCAASGFNFYRYTLGWYRQAPGKERELVASITRRCGSTYYADSVKGRFTISRDNAKHTVYLQMNILKQEDTAEYYCNDATPVWQSGTYDYWGQGTQVTVSS	high polyreactivity
QVQLVESGGGLVQAGGSLRLSCAASGRIFWVNAMGWYRKAPGKERELVARIRGRSGSTYYADSVKGRFTISRDNAKNPVYLQMNSLKREDTAVYYCAAREFRRPDIFLRDYWGQGTQVTVSS	high polyreactivity
QVQLVESGGRLVQAGGSLRLSCAASGLIFNDNAMGWYRQAPGKERELVAAISWGGGTTYYADSVKGRFSNSRDNAKYTVFLQMNSLKPEDTAVYYCAAEEAMFYDFYYVLLDYWGQGTQVTVSS	high polyreactivity
QDQLVESGGGLVQAGGSLRLSCAASGRTFDNYAMGWYRQAPGKERELVARITDTGGSTYYADSVKGRFTISRDNAKNTVYLQMNSLKPEDTAVYYCAADSYPFAWYWLYYYWGQGTQVTVSS	low polyreactivity
QVQLVESGGGLVQAGGSLRLSCAASGRTFRYYAMGWYRQAPGKERELVAAINRGGSTYYADSVKGRFTISRDNAKNTVYLQMNSLKPEDTAVYYCNTARGSKDPPHYYWGQGSQVTVSS	high polyreactivity
QVQLVESGGGLVQAGGSLRLSSAASGRIFRPYDMGWYRQAPGKERELVAAITQSGGITSYADSVKGRFTISRDNAMNTVYLQMNSLTPEDTAVYYCASTSRYTRSHYDWYDYWGQGTQVTVSS	low polyreactivity
QVQLVESGGGLVQAGGSLRLTWAASGSIFTYYTRGWYRQAPGKERELVATIRYTGGNTYYADSVKGRFTISRDNAKNTVYLQMNILKPEDTAVYYCATGYSYRNVPTFRWLYYWGQGTQVTVSS	low polyreactivity
QVQLVESGGGLVQAGGSLRLSCAASGITLVRYAMGWYRQAPGKERELVAAISSSGGSTYYADSVKGRFTISRHNAKNTVYLQMNSLKPEDTAVYYCNAYVHSRRVEFNYWGQGTQVTVSS	high polyreactivity

Sample `QVQLVESGGGLVQAGGSLRLSCAASGSTFDYNTMGWYRQAPGKERELVAGIRSSGARTYYADSVKGRFTISRDNAKNTVYLQMNSLKPEDTAVYYCAKTDGFYRGYGYWGQGTQVTVSS` ; polyreactivity (PSR sort gate) observed: low polyreactivity

Sample `QVQLVESGGGLVQAGGSLRLSCAASGYIFPKNAMGWYRQAPGKERELVAAITGSGGSTYYADSVKGRFTISRDNAKNTVYLQMNSLKPEDTAVYYCAKRSWIEYDYWGQGTQVTVSS` ; polyreactivity (PSR sort gate) observed: low polyreactivity

Sample `QVHLVESGGGLVQAGGSLRLSCAASGSTFDPNAMGWYTQAPGKERELVAAISYTGGRTYYADSVKGRFTISRDKAKNTVYLQMNSLKPEATAVYYCAVLVVGSPTQDEPYVSGVEHDYWGQGTQVTVSS` ; polyreactivity (PSR sort gate) observed: low polyreactivity

Sample `QVQLVESGGGLVQAGGSLRLSCAASGSTLDGNAMGWYRQAPGKERELVAAISVSGGSTYYADSVKGRFTISRDNAKNTVYLQMNSLKPEDPAVYYCSTEWRPRYYGTEPFDSWGQGTQVTVSS` ; polyreactivity (PSR sort gate) observed: high polyreactivity

Sample `QVQLVETGGCLVQAGGSLPLSCAASGRTFRPYAKGLYRPAPGKERELVAAITRGGSTKYADSVKGRFTISRDNAKNTVYLQMNSLKPEDTAVYYCAPDYSVYHRLFDYWGQGTQVTVSS` ; polyreactivity (PSR sort gate) observed: high polyreactivity

Sample `QVQLVESGGGLVQAGGRLRLSCAASGRIFVYYAMGWYRQAPGKERELVAAINAGGSTNYADSVKGRFTISRDNAKNTVYLQMNSLKPEDTAVYYCATDRYWWSGFDYWGQGTQVTVSS` ; polyreactivity (PSR sort gate) observed: high polyreactivity

Sample `HVQLVESGGGLVQAGGSLRLSCAASGSTLYWNAIGWYRQAPGKEMELVASITSSGGSTYYADSVKGRFTISRDNAKNTVYLQMNSLKPEDTAVYYCATESWWRYSEYYYWGQGTQVTVSS` ; polyreactivity (PSR sort gate) observed: low polyreactivity

Sample `QVQLVESGGGLVQAGGSLRLSCAASGRIFPSYAMGWYRPAPGKERELVAAITWSGGSTYYAHSVKGRFTISRDNAKNTVYLLRNSLKPEDTAVYYCNRVERRGTYDYWGQGTQVSVSS` ; polyreactivity (PSR sort gate) observed: high polyreactivity

Sample `QVQLVESVGGLVQAGGSLRLSCAASGRIFPWYAKGWYRQAPGKERELVAAIRWRGGGTYYADSVKGRFTISRDNAKNTVYLQMNSLKPEDTAVYYCAARRPAKGMGYWGQGTQVTVSS` ; polyreactivity (PSR sort gate) observed: high polyreactivity

Sample `QVQLVESGAGLVQAGGRLRLSCAASGFTFRAYDMGWSRQAPAKERELVAAINISGGSTYYADSVKGRFTISRDNAKNTVYLQMNSLKPVDTAVYYCAAVPWVGTLYPRVGYWGQGTQGTVSS` ; polyreactivity (PSR sort gate) observed: low polyreactivity

Sample `QVQLVESGGGLVQAGRSLRLTCAASGRTFRAYTMGWYRQAPGKERDLVAAITSSGGGTYYADSVKGRFTISRDNAKNTVYLQMNSLKPEDTAVYYCNDRKQSYPDKYRRDYWGQGTQVTVSS` ; polyreactivity (PSR sort gate) observed: low polyreactivity
